biological target: CDK9/cyclin T1 (Homo sapiens, UniProt P50750); assay: Inhibition of N-terminal GST-HIS6 fusion protein tagged human full length CDK9 (M1 to F372 residues)/N-terminal GST-HIS6 fusion protein tagged human Cyclin-T1 (M1 to K726 residues) expressed in Sf9 cells at 10 uM using TAMRA-Rbtide substrate and ATP incubated for 1 hr by fluorescent polarization assay
Sequence (O60563 whole entry, the tested form may be a part): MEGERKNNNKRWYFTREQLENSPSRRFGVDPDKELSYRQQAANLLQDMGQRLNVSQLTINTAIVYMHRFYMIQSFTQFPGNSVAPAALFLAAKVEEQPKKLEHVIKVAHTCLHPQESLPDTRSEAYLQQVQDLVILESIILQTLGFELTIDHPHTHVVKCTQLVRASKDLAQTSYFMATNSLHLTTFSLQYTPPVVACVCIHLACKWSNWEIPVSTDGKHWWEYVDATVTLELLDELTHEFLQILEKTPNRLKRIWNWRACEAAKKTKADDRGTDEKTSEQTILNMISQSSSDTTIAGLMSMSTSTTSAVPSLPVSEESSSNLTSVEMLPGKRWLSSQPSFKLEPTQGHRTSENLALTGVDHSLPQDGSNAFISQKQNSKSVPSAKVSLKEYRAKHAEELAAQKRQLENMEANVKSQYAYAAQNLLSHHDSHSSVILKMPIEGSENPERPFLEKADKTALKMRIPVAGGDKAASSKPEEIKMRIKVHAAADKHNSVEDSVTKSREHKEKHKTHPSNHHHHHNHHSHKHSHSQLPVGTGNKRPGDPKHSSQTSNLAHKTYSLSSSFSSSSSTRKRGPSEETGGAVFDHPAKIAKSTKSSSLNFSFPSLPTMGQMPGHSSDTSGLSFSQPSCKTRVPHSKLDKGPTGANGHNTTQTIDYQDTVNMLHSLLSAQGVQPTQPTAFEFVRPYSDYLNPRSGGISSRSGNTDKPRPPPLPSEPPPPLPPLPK
Sequence (P50750 whole entry, the tested form may be a part): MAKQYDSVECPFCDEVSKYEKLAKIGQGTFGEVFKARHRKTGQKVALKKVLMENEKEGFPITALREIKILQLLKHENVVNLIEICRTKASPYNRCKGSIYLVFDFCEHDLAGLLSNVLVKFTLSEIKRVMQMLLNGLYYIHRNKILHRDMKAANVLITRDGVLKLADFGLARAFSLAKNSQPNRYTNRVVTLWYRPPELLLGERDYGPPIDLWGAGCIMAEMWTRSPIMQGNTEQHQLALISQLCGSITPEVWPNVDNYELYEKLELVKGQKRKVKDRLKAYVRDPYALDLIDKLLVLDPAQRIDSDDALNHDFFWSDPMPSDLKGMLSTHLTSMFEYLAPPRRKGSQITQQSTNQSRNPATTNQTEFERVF
quantity.kind: IC50 (nM)

Answered cases to consult:
[
  {
    "sample.smiles": "COc1cccc(F)c1-c1ccnc(Nc2cccc(Cn3cnc4ccccc43)c2)n1",
    "tgt": "CDK9/cyclin T1 (Homo sapiens, UniProt P50750)",
    "IC50 / nM": 2
  },
  {
    "sample.smiles": "Cc1noc(NS(=O)(=O)c2ccc(Nc3nccc(-c4ccc(F)cc4F)n3)cc2)c1C",
    "tgt": "CDK9/cyclin T1 (Homo sapiens, UniProt P50750)",
    "IC50 / nM": 11
  },
  {
    "sample.smiles": "COc1cc(F)c(F)cc1-c1ccnc(Nc2ccc(S(=O)(=O)Nc3nnc(C)s3)cc2)n1",
    "tgt": "CDK9/cyclin T1 (Homo sapiens, UniProt P50750)",
    "IC50 / nM": 10
  },
  {
    "sample.smiles": "COc1cc(F)ccc1-c1ccnc(Nc2ccc(S(=O)(=O)Nc3nnc(C)s3)cc2)n1",
    "tgt": "CDK9/cyclin T1 (Homo sapiens, UniProt P50750)",
    "IC50 / nM": 6
  },
  {
    "sample.smiles": "COc1ccc(F)cc1-c1ccnc(Nc2ccc(S(=O)(=O)Nc3onc(C)c3C)cc2)n1",
    "tgt": "CDK9/cyclin T1 (Homo sapiens, UniProt P50750)",
    "IC50 / nM": 9
  },
  {
    "sample.smiles": "CCOc1cc(Cl)ccc1-c1ccnc(Nc2ccc(S(=O)(=O)Nc3nccs3)cc2)n1",
    "tgt": "CDK9/cyclin T1 (Homo sapiens, UniProt P50750)",
    "IC50 / nM": 378
  }
]

[A] COc1ccc(-c2ccnc(Nc3ccc(S(=O)(=O)Nc4onc(C)c4C)cc3)n2)c(OC)c1
[B] CCOc1cc(F)ccc1-c1ccnc(Nc2ccc(S(=O)(=O)Nc3nccs3)cc2)n1
[C] COc1cc(F)ccc1-c1ccnc(Nc2ccc(S(=O)(=O)Nc3onc(C)c3C)cc2)n1
Ranking field: IC50; order: falling. Rank them, then answer with their labels in that order.
B, A, C
(B: 210 nM, A: 9 nM, C: 2 nM)

[I] COc1ccc(F)cc1-c1ccnc(Nc2ccc(S(=O)(=O)Nc3nnc(C)s3)cc2)n1
[II] COc1cc(F)ccc1-c1cc(Nc2ccc(S(=O)(=O)Nc3onc(C)c3C)cc2)ncn1
Param metric = IC50; output whichever of I , II has the minimum value. Reply with the label of the item you choose.
I

[a] COc1ccccc1-c1ccnc(Nc2ccc(S(=O)(=O)Nc3nnc(C)s3)cc2)n1
[b] COc1ccc(F)c(F)c1-c1ccnc(Nc2ccc(S(=O)(=O)Nc3nnc(C)s3)cc2)n1
[c] Cc1noc(NS(=O)(=O)c2ccc(Nc3nccc(-c4ccc(Cl)cc4Cl)n3)cc2)c1C
[d] Cc1cc(F)ccc1-c1ccnc(Nc2ccc(S(=O)(=O)Nc3onc(C)c3C)cc2)n1
[e] COc1ccc(F)c(F)c1-c1ccnc(Nc2ccc(S(=O)(=O)Nc3onc(C)c3C)cc2)n1
Which order do these items take when sorted by rising IC50? List them. Rank them, then answer with their labels in that order.
b, e, d, a, c
(b: 0.4 nM, e: 1 nM, d: 6 nM, a: 12 nM, c: 50 nM)
